Assignment: determine reported cytotoxicity at 10 µM for the given molecules.
# Test Details: Toxicity liver stage against HepG2, at 10uM
# Type: cell-based
# Set-up: test concentration 10 uM, cell line HepG2-A16-CD81EGFP
# Measurement Parameters: human, HepG2-A16-CD81EGFP cells; read-out: INHIBITION
Report the figure in % without appending any unit label.

Problem: Value lookup for cytotoxicity at 10 µM; key = Cc1cc(N2CCCC(c3n[nH]c4ncccc34)C2)ncn1 (configuration not stated)
Solution: -3.22

Problem: Value lookup for cytotoxicity at 10 µM; key = COc1cc(-c2cc(C3CCOC3)c(C#N)c(N)n2)ccc1O (configuration not stated)
Solution: -0.412

Problem: Value lookup for cytotoxicity at 10 µM; key = "O=C(NCCc1nncn1C1CC1)C1(c2ccccc2)CCC1"
Solution: 5.36

Problem: Value lookup for cytotoxicity at 10 µM; key = "COc1cccc(CNC(=O)CCC2=Nc3ccccc3S(=O)(=O)N2)c1"
Solution: 4.19

Problem: Value lookup for cytotoxicity at 10 µM; key = "Cc1nn(C)c2c(N3CCC(C)CC3)nc(C3CC3)nc12"
Solution: 7.59

Problem: Value lookup for cytotoxicity at 10 µM; key = Cc1noc(C)c1CC(=O)NCC(C(C)C)N1CCOCC1 (configuration not stated)
Solution: -42.7

Problem: Value lookup for cytotoxicity at 10 µM; key = CSCCC(NC(=O)c1ccc2ccccc2n1)C(=O)NC(C)C (configuration not stated)
Solution: 9.3

Problem: Value lookup for cytotoxicity at 10 µM; key = "CCc1c(C)[nH]c(C2(N)CCCCC2)nc1=O"
Solution: -3.47

Problem: Value lookup for cytotoxicity at 10 µM; key = COCc1nc(C(=O)N2CCCC(n3ccnc3C)C2)cs1 (configuration not stated)
Solution: -33.6

Problem: Value lookup for cytotoxicity at 10 µM; key = COCC(=O)N1CCC2(CCC2N(C)Cc2ccco2)CC1 (configuration not stated)
Solution: 0.169

Problem: Value lookup for cytotoxicity at 10 µM; key = "CS(=O)(=O)c1ccc2c(c1)nc1n2[C@@H](CNCc2cccnc2)COC1"
Solution: -2.68

Problem: Value lookup for cytotoxicity at 10 µM; key = Cc1cc(NC(=O)CN2CCCC2Cn2nc(C)nc2C)n(C)n1 (configuration not stated)
Solution: -2.49
